Every entry's value here was drawn from ChEMBL document CHEMBL1138935.

Recorded measurements of inhibition at 2.5 µM, one per entry
Target: CYP17 (steroid 17-alpha-hydroxylase/17,20 lyase) (Homo sapiens)
Sequence (P05093 whole entry): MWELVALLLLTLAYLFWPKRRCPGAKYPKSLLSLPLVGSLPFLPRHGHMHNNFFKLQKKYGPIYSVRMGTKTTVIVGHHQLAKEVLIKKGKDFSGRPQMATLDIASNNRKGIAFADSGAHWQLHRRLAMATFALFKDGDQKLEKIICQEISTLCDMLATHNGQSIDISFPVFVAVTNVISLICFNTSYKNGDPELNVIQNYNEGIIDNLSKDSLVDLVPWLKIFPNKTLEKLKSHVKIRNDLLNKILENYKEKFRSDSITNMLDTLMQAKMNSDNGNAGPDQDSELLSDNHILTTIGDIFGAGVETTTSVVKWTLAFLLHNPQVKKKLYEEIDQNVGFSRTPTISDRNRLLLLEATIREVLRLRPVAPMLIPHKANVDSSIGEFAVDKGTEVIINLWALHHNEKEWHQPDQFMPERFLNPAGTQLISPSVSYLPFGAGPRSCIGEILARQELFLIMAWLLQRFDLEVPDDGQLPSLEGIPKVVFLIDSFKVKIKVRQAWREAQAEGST
Assay: Inhibition of CYP17 at 2.5 uM
recorded metric: inhibition at 2.5 µM

smiles entry | assay value
COc1ccc(-c2oc3ccccc3c(=O)c2Cn2ccnc2)cc1 | 26%
COc1ccc2c(=O)c(Cn3ccnc3)c(-c3ccc([N+](=O)[O-])cc3)oc2c1 | 9%
COc1ccc2c(=O)c(Cn3ccnc3)c(-c3ccc(Br)cc3)oc2c1 | 29%
O=c1c(Cn2ccnc2)c(-c2ccc(Br)cc2)oc2ccccc12 | 27%
COc1ccc2c(=O)c(Cn3ccnc3)c(-c3ccc(C#N)cc3)oc2c1 | 12%
